- tgt: human D2R/β-arrestin (Homo sapiens (Human))
- method-summary: cell-based
- recorded-conditions: β-arrestin Antagonist, CHO-K1 cell line expressing human D2R/β-arrestin; quinpirole used as agonist
recorded-metric: IC50

Use these answered entries as a reference point.
                                   compound                                       tgt  recorded_metric  test_result
0  CC(C1CCN(CCOc2ccccc2)CC1)N(C)C(c1ccc(Cl)cc1)c1ccccn1 (single isomer, unassigned) [Compound 97c]  human D2R/β-arrestin (Homo sapiens (Human))             IC50     < 0.1 µM
1  O=C(NC(c1ccc(Cl)cc1)c1ccccn1)C1CCN(CCOc2ccc(F)cc2F)CC1 (stereo not shown) [Compound 115]  human D2R/β-arrestin (Homo sapiens (Human))             IC50   1 to 10 µM
2  CN(CC1CCN(CCOc2ccccc2F)CC1)C(c1ccc(F)cc1)c1ccccn1 (stereo not shown)  human D2R/β-arrestin (Homo sapiens (Human))             IC50  0.1 to 1 µM
3  Fc1ccc(F)c(OCCN2CCC(CNC(c3ccc(Cl)cc3)c3ccccn3)CC2)c1 (stereo not shown) [Compound 89]  human D2R/β-arrestin (Homo sapiens (Human))             IC50  0.1 to 1 µM
4  O=C(NC(c1ccc(Cl)cc1)c1ccncc1F)C1CCN(CCOc2ccccc2)CC1 (stereo not shown)  human D2R/β-arrestin (Homo sapiens (Human))             IC50   1 to 10 µM

Query: What measured IC50 goes with CC1(CNC(c2ccc(F)cc2)c2ccccn2)CCN(CCOc2ccccc2C(F)(F)F)CC1 (single isomer, unassigned) [Compound 101a] ?
Reply: 0.1 to 1 µM

Query: What measured IC50 goes with O=C(NC(c1ccc(Cl)cc1)c1ccccc1F)C1CCN(CCOc2ccccc2F)CC1 (stereo not shown) ?
Reply: 0.1 to 1 µM

###

The compounds listed here are annotated with their IC50.
- tgt: human D2R/β-arrestin (Homo sapiens (Human))
- method-summary: cell-based
- recorded-conditions: β-arrestin Antagonist, CHO-K1 cell line expressing human D2R/β-arrestin; quinpirole used as agonist

Query: What measured IC50 goes with Fc1ccccc1OCCN1CCC(CN(CC(F)(F)F)C(c2ccc(Cl)cc2)c2ccccn2)CC1 (stereo not shown) [Compound 136] ?
Reply: < 0.1 µM

###

- tgt: human D2R/β-arrestin (Homo sapiens (Human))
- method-summary: cell-based
- recorded-conditions: β-arrestin Antagonist, CHO-K1 cell line expressing human D2R/β-arrestin; quinpirole used as agonist
recorded-metric: IC50

Use these answered entries as a reference point.
In [3]: df
Out[3]:
                                   compound       test_result
0  COc1ccccc1C(NC(=O)C1CCN(CCOc2ccccc2)CC1)c1ccc(Cl)cc1 (stereo not shown)  1000 to 10000 nM
1  CC(C)C(NC(=O)C1CCN(CCOc2ccccc2)CC1)c1ccccn1 (stereo not shown)  1000 to 10000 nM
2  CN(CC1CCN(CCOc2ccccc2F)CC1)C(c1ccc(Cl)cc1)c1ccccn1 (single isomer, unassigned) [Compound 72a]    100 to 1000 nM

Query: # query: IC50 | item O=C(NC(c1ccc(F)cc1)c1ccccn1)C1CCN(CCOc2ccccc2Cl)CC1 (stereo not shown) | system: human D2R/β-arrestin (Homo sapiens (Human))
Reply: < 100 nM

Query: # query: IC50 | item COc1cccc(C(NC(=O)C2CCN(CCOc3ccccc3F)CC2)c2ccccn2)c1 (stereo not shown) | system: human D2R/β-arrestin (Homo sapiens (Human))
Reply: 100 to 1000 nM

Query: # query: IC50 | item O=C(NC(c1ccc2c(c1)OC(F)(F)O2)c1ccccn1)C1CCN(CCOc2ccc(F)cc2F)CC1 (stereo not shown) [Compound 130] | system: human D2R/β-arrestin (Homo sapiens (Human))
Reply: 1000 to 10000 nM

Query: # query: IC50 | item O=C(NC(c1ccccc1)c1ccccn1)C1CCN(CCOc2ccccc2)CC1 (stereo not shown) | system: human D2R/β-arrestin (Homo sapiens (Human))
Reply: 1000 to 10000 nM

Query: # query: IC50 | item `O=C(NC(c1ccccc1F)c1ccccc1F)C1CCN(CCOc2ccccc2Cl)CC1` | system: human D2R/β-arrestin (Homo sapiens (Human))
Reply: 100 to 1000 nM

Query: # query: IC50 | item O=C(NC(c1ccc(F)cc1)c1ccccn1)C1CCN(CCOc2ccc3ncsc3c2)CC1 (stereo not shown) | system: human D2R/β-arrestin (Homo sapiens (Human))
Reply: 1000 to 10000 nM

Query: # query: IC50 | item CN(CC1CCN(CCOc2ccccc2)CC1)C(c1ccc(F)cc1)c1ccccn1 (stereo not shown) [Compound 74] | system: human D2R/β-arrestin (Homo sapiens (Human))
Reply: 100 to 1000 nM

Query: # query: IC50 | item O=C(NC(c1ccc(Cl)cc1)c1ccccn1)C1CCN(CCOc2ccccc2)CC1 (stereo not shown) [Compound 63] | system: human D2R/β-arrestin (Homo sapiens (Human))
Reply: 100 to 1000 nM

Query: # query: IC50 | item O=C(NC(c1ccc(F)cc1)c1ccccn1)C1CCN(CCOc2c(F)cccc2F)CC1 (stereo not shown) | system: human D2R/β-arrestin (Homo sapiens (Human))
Reply: 100 to 1000 nM

Query: # query: IC50 | item FC(F)(F)CN(CC1CCN(CCOc2ccccc2)CC1)C(c1ccc(Cl)cc1)c1ccccn1 (single isomer, unassigned) [Compound 125b] | system: human D2R/β-arrestin (Homo sapiens (Human))
Reply: 100 to 1000 nM

Query: # query: IC50 | item Fc1ccccc1C(NCC1CCN(CCOc2ccccc2)CC1)c1ccc(Cl)cc1 (stereo not shown) [Compound 81] | system: human D2R/β-arrestin (Homo sapiens (Human))
Reply: 100 to 1000 nM

Query: # query: IC50 | item `O=C(NC(c1ccccn1)c1ccccn1)C1CCN(CCOc2ccccc2)CC1` | system: human D2R/β-arrestin (Homo sapiens (Human))
Reply: 10000 to 30000 nM

Query: # query: IC50 | item CN(CC1CCN(CCOc2ccccc2C(F)(F)F)CC1)C(c1ccc(Cl)cc1)c1ccccn1 (stereo not shown) | system: human D2R/β-arrestin (Homo sapiens (Human))
Reply: < 100 nM

###

- tgt: human D2R/β-arrestin (Homo sapiens (Human), UniProt P14416)
- Sequence (P14416 whole entry): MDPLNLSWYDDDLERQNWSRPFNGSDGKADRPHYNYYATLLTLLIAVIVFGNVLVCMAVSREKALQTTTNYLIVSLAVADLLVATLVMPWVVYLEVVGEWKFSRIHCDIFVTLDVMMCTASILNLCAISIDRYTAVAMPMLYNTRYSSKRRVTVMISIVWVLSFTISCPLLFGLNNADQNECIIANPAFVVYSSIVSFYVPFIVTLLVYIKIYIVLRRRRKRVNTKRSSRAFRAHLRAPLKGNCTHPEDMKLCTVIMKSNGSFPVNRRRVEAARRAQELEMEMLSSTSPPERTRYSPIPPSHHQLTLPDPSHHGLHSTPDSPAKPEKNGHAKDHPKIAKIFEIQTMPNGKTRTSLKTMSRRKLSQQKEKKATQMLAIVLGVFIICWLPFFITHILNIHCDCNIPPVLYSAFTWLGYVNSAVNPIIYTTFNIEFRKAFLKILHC
- method-summary: cell-based
- recorded-conditions: cAMP Antagonist, CHO-K1 cell line expressing human D2R/β-arrestin; quinpirole used as agonist
pIC50: −log10 of the molar value.
The molecules listed here are annotated with their pIC50.

Use these answered entries as a reference point.
>>> df
                                   molecule                                       tgt   test_result
0  COc1ccc(C(NC(=O)C2CCN(CCOc3ccccc3)CC2)c2ccccn2)cc1 (stereo not shown)  human D2R/β-arrestin (Homo sapiens (Human), UniProt P14416)        < 4.52
1  COc1cccc(C(NC(=O)C2CCN(CCOc3ccccc3Cl)CC2)c2ccccn2)c1 (stereo not shown)  human D2R/β-arrestin (Homo sapiens (Human), UniProt P14416)  6.00 to 7.00
2  c1ccc(OCCN2CCC(CNC(c3ccc4c(c3)OCO4)c3ccccn3)CC2)cc1 (stereo not shown) [Compound 102]  human D2R/β-arrestin (Homo sapiens (Human), UniProt P14416)  6.00 to 7.00

Please find the next molecule below.
Query: What measured pIC50 goes with O=C(NC(c1ccc(Cl)cc1)c1cccnc1)C1CCN(CCOc2ccccc2)CC1 (stereo not shown) ?
Reply: < 4.52

###

- Test system: plasma protein
- method-summary: Plasma protein binding, rat
- Assay type: in vitro ADME
- recorded-conditions: plasma, read-out: Plasma Protein Binding % bound
recorded-metric: fraction unbound

In [3]: df
Out[3]:
                                   compound             tgt  test_result
0  O=C(NC(c1ccc(F)cc1)c1ccc(Cl)cc1)C1CCN(CCOc2ccccc2)CC1 (stereo not shown)  plasma protein        0.014
1  O=C(NC(c1cccc(Cl)c1)c1ccccn1)C1CCN(CCOc2ccccc2)CC1 (stereo not shown)  plasma protein        0.033
2  O=C(NC(c1ccc(Cl)cc1)c1ccccc1F)C1CCN(CCOc2ccccc2)CC1 (stereo not shown)  plasma protein        0.023

A = O=C(NC(c1ccc(Cl)cc1)c1ccccn1)C1CCN(CCOc2ccc(F)cc2)CC1 (stereo not shown)
B = O=C(NC(c1ccc(Cl)cc1)c1cccc(F)c1)C1CCN(CCOc2ccccc2)CC1 (stereo not shown)
C = O=C(NC(c1cccc(C(F)(F)F)c1)c1ccccn1)C1CCN(CCOc2ccccc2)CC1 (stereo not shown)
Query: // ascending sort on recorded fraction unbound Response field: labels, in requested order.
Reply: B, C, A
(B: 0.014, C: 0.023, A: 0.142)

1 = O=C(NC(c1ccc(F)cc1)c1ccccn1)C1CCN(CCOc2ccccc2)CC1 (stereo not shown)
2 = O=C(NC(c1ccccc1)c1ccc(Cl)cc1)C1CCN(CCOc2ccccc2)CC1 (stereo not shown)
Query: Form: Entry with minimum fraction unbound (choose one): 1 / 2 Lab log: write the label of the selected item as the result.
Reply: 1
(1: 0.03, 2: 0.046)
